pIC50: −log10 of the molar value.
Measurement record for ROCK2 (Homo sapiens (Human)); quantity recorded: pIC50.

Compound | System name | pIC50
COc1cc(NC2CCN(c3ccc(-c4cn[nH]c4)cn3)C2=O)ccc1F (single isomer, unassigned) | ROCK2 (Homo sapiens (Human)) | 7.00 to 8.00
COc1cccc(NC2CCN(c3ccc(-c4cn[nH]c4)cc3)C2=O)c1 (single isomer, unassigned) | ROCK2 (Homo sapiens (Human)) | > 8.00
COc1cccc(OC2CCN(c3ccc(-c4ccc5cn[nH]c5c4)c(OC)n3)C2=O)c1 (single isomer, unassigned) | ROCK2 (Homo sapiens (Human)) | 5.66 to 7.00
COc1cc(F)cc(NC2CCN(c3ccc(-c4cn[nH]c4)c(OC)c3)C2=O)c1 (single isomer, unassigned) | ROCK2 (Homo sapiens (Human)) | > 8.00

Indicate its recorded pIC50; the compound in question is COc1cccc(NC2CCN(c3ccc(-c4cn[nH]c4)c(C(F)(F)F)c3)C2=O)c1 (single isomer, unassigned) 5.66 to 7.00

Give the reported value of pIC50 for this record: CCOc1cc(N2CCC(Nc3ccc(F)c(OC)c3)C2=O)ccc1-c1cn[nH]c1 (single isomer, unassigned) 7.00 to 8.00

Annotate the compound COc1cc(F)cc(NC2CCN(c3ccc(-c4cn[nH]c4)cn3)C2=O)c1 (single isomer, unassigned) with its measured pIC50. 7.00 to 8.00

These measurements were taken from patent US10112929B2.
